Measured target: Proto-oncogene tyrosine-protein kinase receptor Ret (Homo sapiens, UniProt P07949)
Sequence (P07949 whole entry): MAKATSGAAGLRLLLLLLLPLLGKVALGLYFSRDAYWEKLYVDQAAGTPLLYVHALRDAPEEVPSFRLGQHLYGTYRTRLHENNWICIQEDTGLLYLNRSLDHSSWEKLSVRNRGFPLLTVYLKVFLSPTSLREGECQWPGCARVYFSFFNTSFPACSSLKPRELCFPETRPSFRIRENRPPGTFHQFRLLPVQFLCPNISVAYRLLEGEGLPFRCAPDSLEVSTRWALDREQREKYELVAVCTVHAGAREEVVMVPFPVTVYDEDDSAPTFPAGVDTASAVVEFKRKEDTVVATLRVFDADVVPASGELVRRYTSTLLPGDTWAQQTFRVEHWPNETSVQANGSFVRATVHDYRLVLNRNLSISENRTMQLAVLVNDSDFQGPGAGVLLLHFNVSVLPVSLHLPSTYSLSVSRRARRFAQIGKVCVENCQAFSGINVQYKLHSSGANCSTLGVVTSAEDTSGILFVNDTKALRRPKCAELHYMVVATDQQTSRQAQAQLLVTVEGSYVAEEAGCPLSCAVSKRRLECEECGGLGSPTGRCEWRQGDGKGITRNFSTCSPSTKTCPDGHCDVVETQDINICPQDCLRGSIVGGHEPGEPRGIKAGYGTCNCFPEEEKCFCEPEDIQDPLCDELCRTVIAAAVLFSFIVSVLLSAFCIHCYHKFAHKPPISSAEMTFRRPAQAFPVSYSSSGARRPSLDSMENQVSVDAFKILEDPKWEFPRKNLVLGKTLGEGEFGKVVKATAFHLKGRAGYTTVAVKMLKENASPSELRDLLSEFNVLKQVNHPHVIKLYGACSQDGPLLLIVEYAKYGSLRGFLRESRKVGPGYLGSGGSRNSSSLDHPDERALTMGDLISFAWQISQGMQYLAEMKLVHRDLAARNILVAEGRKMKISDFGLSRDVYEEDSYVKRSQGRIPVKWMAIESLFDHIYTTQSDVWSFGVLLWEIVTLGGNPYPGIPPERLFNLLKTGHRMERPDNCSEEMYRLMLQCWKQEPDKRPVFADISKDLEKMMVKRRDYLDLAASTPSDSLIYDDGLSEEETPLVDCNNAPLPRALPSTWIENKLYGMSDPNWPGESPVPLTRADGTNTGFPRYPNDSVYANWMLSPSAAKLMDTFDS
Readout type: IC50 (µM)

| Smiles structure | Readout type | Recorded value |
| --- | --- | --- |
| Nc1ncnc2[nH]ncc12 | IC50 | 9.2 |

---

Measured target: YEATS domain-containing protein 4 (Homo sapiens, UniProt O95619)
Sequence (O95619 whole entry, the tested form may be a part): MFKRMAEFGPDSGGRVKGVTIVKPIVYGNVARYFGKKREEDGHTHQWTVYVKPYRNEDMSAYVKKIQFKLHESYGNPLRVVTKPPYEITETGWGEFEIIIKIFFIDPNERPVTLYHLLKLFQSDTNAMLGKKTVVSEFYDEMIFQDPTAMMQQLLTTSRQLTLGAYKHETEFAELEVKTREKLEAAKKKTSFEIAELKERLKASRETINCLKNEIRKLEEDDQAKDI
Readout type: IC50 (nM)

| Smiles structure | Unit | Recorded value |
| --- | --- | --- |
| O=C(Nc1ccc(C(=O)N2CC(c3nc4ccccc4s3)C2)s1)[C@@H]1C[C@@H](OCCCCCO[C@H]2CN[C@H](C(=O)Nc3ccc(C(=O)N4CC(c5nc6ccccc6s5)C4)s3)C2)CN1 | nM | 96 |
